test: Antiproliferative activity against human BGC823 cells assessed as inhibition of cell proliferation at 10 uM by MTT assay
Assay type: functional
measurement-context: BGC-823
Parameter: inhibition at 10 µM. Scope: all listed entries.
Quick note: give the figure in %, leave out the unit.

Below: 5 compounds and their reported inhibition at 10 µM.
- compound: "O=[N+]([O-])c1ccc2c(c1)N(S(=O)(=O)c1ccc(-c3cnc(C4CC4)o3)cc1)CC2"
  value-units: "%"
  measured-value: 97.7
- compound: "N#Cc1ccc2c(c1)CCN2S(=O)(=O)c1ccc(-c2cnc(C3CC3)o2)cc1"
  value-units: "%"
  measured-value: 29.6
- compound: "O=S(=O)(c1ccc(-c2nnc(C3CC3)o2)cc1)N1CCc2ccccc21"
  value-units: "%"
  measured-value: 27.7
- compound: "CC1Cc2ccccc2N1S(=O)(=O)c1ccc(-c2cnc(C3CC3)o2)cc1 (stereo not drawn)"
  value-units: "%"
  measured-value: 81.8
- compound: "O=S(=O)(c1ccc(-c2cnc(C3CC3)o2)cc1)N1CCc2cc(F)ccc21"
  value-units: "%"
  measured-value: 18.3

Ask | Please give the documented inhibition at 10 µM of "O=c1[nH]n(S(=O)(=O)c2ccc(-c3cnc(C4CC4)o3)cc2)c2ccccc12"
Reply | 83.7

Ask | Please give the documented inhibition at 10 µM of "O=S(=O)(c1ccc(-c2cnc(C3CC3)s2)cc1)N1CCc2ccccc21"
Reply | 38.5

These data points were gathered from ChEMBL document CHEMBL3352147.
